For each record, write down the corresponding remaining at 1 h, 30 µM.
Experiment: Metabolic stability in human liver microsomes assessed as compound remaining at 30 uM after 60 mins by HPLC analysis
Assay type: ADME, Microsome
Details: read-out: Stability
Numbers only, in %.

- STRUCTURE AS SMILES: "CC(=O)Nc1nc2ccc(Oc3ccc(F)c(NC(=O)c4cccc(C5(C#N)CC5)c4Cl)c3)nc2s1"
  remaining at 1 h, 30 µM (%): 78.5

Below: the item to evaluate.
IN: For the molecule shown here, `N#CC1(c2cccc(C(=O)Nc3cc(Oc4ccc5nc(NC(=O)C6CC6)sc5n4)ccc3F)c2Cl)CC1` , give the reported remaining at 1 h, 30 µM.
OUT: 110

----------
Test: Thermodynamic solubility of the compound in JP2 solution at pH 6.8 in presence of 20 mM bile acid
Type: physicochemical
Conditions: JP2 solution with 20 mM bile acid, read-out: Therm_solubility
Returns one of YES or NO; YES when solubility thermodynamic is >= 4 µg/mL.

- STRUCTURE AS SMILES: "CC(=O)O.CC(C)(C)OC(=O)N(C(=O)c1cccc(C2(C#N)CC2)c1Cl)c1cc(Oc2ccc3nc(NC(=O)C4CC4)sc3n2)ccc1F"
  CAT: "YES"
- STRUCTURE AS SMILES: "N#CC1(c2cccc(C(=O)Nc3cc(Oc4ccc5nc(NC(=O)C6CC6)sc5n4)ccc3F)c2Cl)CC1"
  CAT: "NO"
- STRUCTURE AS SMILES: "CC(C)(C)OC(=O)N(C(=O)c1cccc(C2(C#N)CC2)c1Cl)c1cc(Oc2ccc3nc(NC(=O)C4CC4)sc3n2)ccc1F.O"
  CAT: "YES"

IN: Dear colleague, could you confirm whether `CC(C)(C)OC(=O)N(C(=O)c1cccc(C2(C#N)CC2)c1Cl)c1cc(Oc2ccc3nc(NC(=O)C4CC4)sc3n2)ccc1F.CCO` has solubility thermodynamic at or above 4 µg/mL?
OUT: YES

IN: Repeat with `N#CC1(c2cccc(C(=O)N(C(=O)C3CC3)c3cc(Oc4ccc5nc(NC(=O)C6CC6)sc5n4)ccc3F)c2Cl)CC1`
OUT: NO

IN: Repeat with `CCOC(=O)N(C(=O)c1cccc(C2(C#N)CC2)c1Cl)c1cc(Oc2ccc3nc(NC(=O)C4CC4)sc3n2)ccc1F`
OUT: NO

meta.source: ChEMBL document CHEMBL2062432
